Experiment: Drug level in Sprague-Dawley rat liver at 15 mg/kg administered intraduodenally as single dose measured at 4 hrs by LC/MS/MS method
Type: ADME, organism-based
Details: read-out: Drug uptake
parameter: concentration at 4 h (ng/g)

compound.structure	concentration at 4 h, ng/g
C=C[C@@H]1C[C@]1(NC(=O)[C@@H]1C[C@@H](Oc2cc(-c3ccccc3)nc3cc(OC)ccc23)CN1C(=O)[C@@H](OC(=O)NC1CCCC1)C(C)(C)C)C(=O)NS(=O)(=O)C1CC1	3430

P: C=C[C@@H]1C[C@]1(NC(=O)[C@@H]1C[C@@H](Oc2nccc3cc(OC)ccc23)CN1C(=O)[C@@H](NC(=O)N[C@H](C(=O)OC(C)(C)C)C(C)(C)C)C(C)(C)C)C(=O)NS(=O)(=O)C1CC1
Q: C=C[C@@H]1C[C@]1(NC(=O)[C@@H]1C[C@@H](Oc2nccc3cc(OC)ccc23)CN1C(=O)[C@@H](NC(=O)OC(C)(C)C)C(C)(C)C)C(=O)NS(=O)(=O)C1CC1
Problem: Choose between P and Q : whose measured concentration at 4 h value is numerically larger? # reply format: chosen label
Result: Q
(Q: 64700 ng/g, P: 4850 ng/g)

---

Test: AUC in Sprague-Dawley rat plasma at 15 mg/kg administered intraduodenally as single dose measured at 4 hrs by LC/MS/MS method
Assay type: ADME, organism-based
Design: dose 15 mg/kg, time < 4 hr, route intraduodenal
parameter: AUC at 4 h (ng·h/mL)

compound.structure	AUC at 4 h, ng·h/mL
C=C[C@@H]1C[C@]1(NC(=O)[C@@H]1C[C@@H](Oc2cc(-c3ccccc3)nc3cc(OC)ccc23)CN1C(=O)[C@@H](NC(=O)OC(C)(C)C)C(C)(C)C)C(=O)NS(=O)(=O)C1CC1	61

A: C=C[C@@H]1C[C@]1(NC(=O)[C@@H]1C[C@@H](Oc2nccc3cc(OC)ccc23)CN1C(=O)[C@@H](NC(=O)N[C@H](C(=O)OC(C)(C)C)C(C)(C)C)C(C)(C)C)C(=O)NS(=O)(=O)C1CC1
B: C=C[C@@H]1C[C@]1(NC(=O)[C@@H]1C[C@@H](Oc2cc(-c3ccccc3)nc3cc(OC)ccc23)CN1C(=O)[C@@H](OC(=O)NC(C)(C)C)C(C)(C)C)C(=O)NS(=O)(=O)C1CC1
Problem: Choose between A and B : whose measured AUC at 4 h value is numerically larger? # reply format: chosen label
Result: A

---

Assay: AUC in Sprague-Dawley rat plasma at 15 mg/kg administered intraduodenally as single dose measured at 4 hrs by LC/MS/MS method
Format: ADME, organism-based
Design: dose 15 mg/kg, time < 4 hr, route intraduodenal
parameter: AUC at 4 h (µg·h/mL)

Consider the worked cases shown below.
compound.structure	scale.unit	result
C=C[C@@H]1C[C@]1(NC(=O)[C@@H]1C[C@@H](Oc2cc(-c3ccccc3)nc3cc(OC)ccc23)CN1C(=O)[C@H]([C@@H](C)CC)N(C)C(=O)NC(C)(C)C)C(=O)NS(=O)(=O)C1CC1	µg·h/mL	0.016
C=C[C@@H]1C[C@]1(NC(=O)[C@@H]1C[C@@H](Oc2nccc3cc(OC)ccc23)CN1C(=O)[C@@H](NC(=O)NC(C)(C)C)C(C)(C)C)C(=O)NS(=O)(=O)C1CC1	µg·h/mL	0.497
C=C[C@@H]1C[C@]1(NC(=O)[C@@H]1C[C@@H](Oc2cc(-c3ccccc3)nc3cc(OC)ccc23)CN1C(=O)[C@@H](OC(=O)NC1CCCC1)C(C)(C)C)C(=O)NS(=O)(=O)C1CC1	µg·h/mL	0.095

a: C=C[C@@H]1C[C@]1(NC(=O)[C@@H]1C[C@@H](Oc2nccc3cc(OC)ccc23)CN1C(=O)[C@@H](NC(=O)N[C@H](COC)C(C)(C)C)C(C)(C)C)C(=O)NS(=O)(=O)C1CC1
b: C=C[C@@H]1C[C@]1(NC(=O)[C@@H]1C[C@@H](Oc2nccc3cc(OC)ccc23)CN1C(=O)[C@@H](NC(=O)N[C@H](C(=O)O)C(C)(C)C)C(C)(C)C)C(=O)NS(=O)(=O)C1CC1
Problem: Choose between a and b : whose measured AUC at 4 h value is numerically larger? # reply format: chosen label
Result: a

---

Assay: Drug level in Sprague-Dawley rat liver at 15 mg/kg administered intraduodenally as single dose measured at 4 hrs by LC/MS/MS method
Format: ADME, organism-based
Details: read-out: Drug uptake
parameter: concentration at 4 h (ng/g)

Consider the worked cases shown below.
compound.structure	scale.unit	result
C=C[C@@H]1C[C@]1(NC(=O)[C@@H]1C[C@@H](Oc2cc(-c3ccccc3)nc3cc(OC)ccc23)CN1C(=O)[C@@H](NC(=O)N(C)C(C)(C)C)C(C)(C)C)C(=O)NS(=O)(=O)C1CC1	ng/g	2600
C=C[C@@H]1C[C@]1(NC(=O)[C@@H]1C[C@@H](Oc2cc(-c3ccccc3)nc3cc(OC)ccc23)CN1C(=O)[C@@H](NC(=O)NC(C)(C)C)C(C)(C)C)C(=O)NS(=O)(=O)C1CC1	ng/g	72
C=C[C@@H]1C[C@]1(NC(=O)[C@@H]1C[C@@H](Oc2nccc3cc(OC)ccc23)CN1C(=O)[C@@H](NC(=O)N[C@H](C(=O)N1CCN(c2ncccn2)CC1)C(C)(C)C)C(C)(C)C)C(=O)NS(=O)(=O)C1CC1	ng/g	87
C=C[C@@H]1C[C@]1(NC(=O)[C@@H]1C[C@@H](Oc2cc(-c3ccccc3)nc3cc(OC)ccc23)CN1C(=O)[C@@H](OC(=O)NC(C)(C)C)C(C)(C)C)C(=O)NS(=O)(=O)C1CC1	ng/g	3770
C=C[C@@H]1C[C@]1(NC(=O)[C@@H]1C[C@@H](Oc2cc(-c3ccccc3)nc3cc(OC)ccc23)CN1C(=O)[C@H]([C@@H](C)CC)N(C)C(=O)NC(C)(C)C)C(=O)NS(=O)(=O)C1CC1	ng/g	1780
C=C[C@@H]1C[C@]1(NC(=O)[C@@H]1C[C@@H](Oc2cc(-c3ccccc3)nc3cc(OC)ccc23)CN1C(=O)[C@H]([C@@H](C)CC)N(C)C(=O)NC1CCCC1)C(=O)NS(=O)(=O)C1CC1	ng/g	1240

P: C=C[C@@H]1C[C@]1(NC(=O)[C@@H]1C[C@@H](Oc2cc(-c3ccccc3)nc3cc(OC)ccc23)CN1C(=O)[C@@H](NC(=O)OC(C)(C)C)C(C)(C)C)C(=O)NS(=O)(=O)C1CC1
Q: C=C[C@@H]1C[C@]1(NC(=O)[C@@H]1C[C@@H](Oc2cc(-c3ccccc3)nc3cc(OC)ccc23)CN1C(=O)[C@@H](OC(=O)NC(C)C)C(C)(C)C)C(=O)NS(=O)(=O)C1CC1
Problem: Choose between P and Q : whose measured concentration at 4 h value is numerically larger? # reply format: chosen label
Result: P

---

Assay: AUC in Sprague-Dawley rat plasma at 15 mg/kg administered intraduodenally as single dose measured at 4 hrs by LC/MS/MS method
Assay type: ADME, organism-based
Design: dose 15 mg/kg, time < 4 hr, route intraduodenal
parameter: AUC at 4 h (ng·h/mL)

compound.structure	scale.unit	result
C=C[C@@H]1C[C@]1(NC(=O)[C@@H]1C[C@@H](Oc2nccc3cc(OC)ccc23)CN1C(=O)[C@@H](NC(=O)N[C@H](C(=O)N1CCN(c2ncccn2)CC1)C(C)(C)C)C(C)(C)C)C(=O)NS(=O)(=O)C1CC1	ng·h/mL	1630
C=C[C@@H]1C[C@]1(NC(=O)[C@@H]1C[C@@H](Oc2cc(-c3ccccc3)nc3cc(OC)ccc23)CN1C(=O)[C@@H](NC(=O)NC(C)(C)C)C(C)(C)C)C(=O)NS(=O)(=O)C1CC1	ng·h/mL	17

P: C=C[C@@H]1C[C@]1(NC(=O)[C@@H]1C[C@@H](Oc2cc(-c3ccccc3)nc3cc(OC)ccc23)CN1C(=O)[C@@H](NC(=O)N(C)C(C)(C)C)C(C)(C)C)C(=O)NS(=O)(=O)C1CC1
Q: C=C[C@@H]1C[C@]1(NC(=O)[C@@H]1C[C@@H](Oc2nccc3cc(OC)ccc23)CN1C(=O)[C@@H](NC(=O)OC(C)(C)C)C(C)(C)C)C(=O)NS(=O)(=O)C1CC1
Problem: I'm curious, which of these has a smaller AUC at 4 h number: P or Q ? # reply format: chosen label
Result: P
(P: 32 ng·h/mL, Q: 7420 ng·h/mL)

Provenance of the data: ChEMBL document CHEMBL4219218
